- assay.name: Efflux ratio of apparent permeability from basolateral to apical side over apical to basolateral side in human Caco2 cells by LC-MS/MS analysis
- Type: ADME, cell-based
- cond: Caco-2
observed.property: efflux ratio

If you can, please state the reported efflux ratio value of CC(C)C[C@@H]1NC(=O)[C@H](C)NC(=O)CN(Cc2ccccc2)CCCCCCNC1=O . 4.9

(1) CC(C)C[C@@H]1C(=O)N(C)CCCCCCN[C@@H](Cc2ccccc2)C(=O)N[C@@H](C)C(=O)N1C
(2) CC(C)C[C@@H]1NC(=O)[C@@H](C)N(C)C(=O)[C@H](Cc2ccccc2)NCCCCCCN(C)C1=O
Given 1 and given 2 , which shows the smaller recorded efflux ratio? Field: selected label. Fill in the label of the entry you choose. 1
(1: 0.9, 2: 9.9)
